Quick list: pEC50 per entry.
# System: Human alphaherpesvirus 1
# protocolNotes: Antiviral activity against Herpes simplex virus type 1 infected in human RD cells assessed as inhibition of virus-induced cytopathic effect
# Type: functional, organism-based
# runParameters: Human alphaherpesvirus 1, RD
For clarity, pEC50 is expressed as the negative log10 of concentration in mol/L.

Study these solved cases before continuing.
>>> assayresult("CCCCCCCCCCCCCCCC(=O)OC[C@H](O)[C@H]1OC(=O)C(O[C@H]2O[C@H](CO)[C@@H](O)[C@H](O)[C@H]2O)=C1O")
5.35
>>> assayresult("O=C1O[C@H]([C@@H](O)CO)C(O)=C1O[C@H]1O[C@H](CO)[C@@H](O)[C@H](O)[C@H]1O")
4.79

// next entry
I'd like to know its pEC50. The compound in question is COC1=C(OC)[C@@H]([C@@H](O)CO)OC1=O
2.74
